# Lookup of reported MIC keyed by entry
# Test system: P. aeruginosa MK1184
# EXPERIMENT DESCRIPTION: Minimum inhibitory concentration in vitro, agar dilution method
# Format: cell-based
# EXPERIMENTAL CONDITIONS: Pseudomonas aeruginosa; P. aeruginosa MK1184, agar dilution; read-out: MIC
Expressed in µg/mL, but write only the number.

Worked examples follow.
COMPOUND: Cc1cc(SCC2=C(C(=O)O)N3C(=O)[C@@H](NC(=O)/C(=N\OCc4nc(=O)c(O)c[nH]4)c4csc(N)n4)[C@H]3SC2)n2nc(CNS(=O)(=O)c3ccc(O)c(O)c3)nc2n1 [Example 2]
MIC (µg/mL): 0.25

COMPOUND: Cc1ncc(-c2ccc(O)c(O)c2)c(SCC2=C(C(=O)O)N3C(=O)[C@@H](NC(=O)/C(=N\OC(C)(C)C(=O)NO)c4csc(N)n4)[C@H]3SC2)n1 [Example 19b]
MIC (µg/mL): 8

COMPOUND: Cc1cc(SCC2=C(C(=O)O)N3C(=O)[C@@H](NC(=O)/C(=N\OCc4ccc(O)c(O)c4)c4csc(N)n4)[C@H]3SC2)n2nc(CNS(=O)(=O)c3ccc(O)c(O)c3)nc2n1 [Example 4]
MIC (µg/mL): 0.25

# ---- query compound ----
Recorded MIC for CC(C)(O/N=C(\C(=O)N[C@@H]1C(=O)N2C(C(=O)O)=C(CSc3nc(-c4ccccc4)ncc3-c3ccc(O)c(O)c3)CS[C@H]12)c1csc(N)n1)C(=O)NNC(=O)c1ccc(O)c(O)c1 [Example 46] , please?
2
